The following molecules are listed with their measured relative viability values.
Test system: A549
Experiment: relative viability (normalised to negative control = 1, bortezomib = 0) (fraction); higher = less cytotoxic
Conditions: inflammatory serum-free RHB-A with cytokines + LPS; 5 d + 24 h CellTiter-Blue; compound 300 nM; GSK126 pretreatment: none (vehicle)
Counter-ions that a name gives are not always drawn.
measure-name: relative viability

Cc1ccccc1-n1c(Cn2ncc3c(N)ncnc32)nc2cccc(C)c2c1=O	0.857
Cn1c(CCCC(=O)O)nc2cc(N(CCCl)CCCl)ccc21 [bendamustine hydrochloride]	0.865
N.N.[Cl][Pt][Cl] [Cisplatin]	0.875
C1CN1c1nc(N2CC2)nc(N2CC2)n1	0.918

====

System: A549
Assay: relative viability (normalised to negative control = 1, bortezomib = 0) (fraction); higher = less cytotoxic
Details: inflammatory serum-free RHB-A with cytokines + LPS; 5 d + 24 h CellTiter-Blue; compound 300 nM; GSK126 pretreatment: 5 uM GSK126
Counter-ions that a name gives are not always drawn.
measure-name: relative viability

O=P1(N(CCCl)CCCl)NCCCO1 (stereo not given) [Cyclophosphamide monohydrate; Cyclophosphamide]	0.877
N.N.[Cl][Pt][Cl] [Cisplatin]	0.839
N[C@@H](Cc1ccc(N(CCCl)CCCl)cc1)C(=O)O	0.874
Cc1c(N)nc([C@H](CC(N)=O)NC[C@H](N)C(N)=O)nc1C(=O)N[C@H](C(=O)N[C@H](C)[C@@H](O)[C@H](C)C(=O)N[C@H](C(=O)NCCc1nc(-c2nc(C(=O)NCCC[S+](C)C)cs2)cs1)[C@@H](C)O)[C@@H](OC1OC(CO)C(O)C(O)C1OC1OC(CO)C(O)C(OC(N)=O)C1O)c1cnc[nH]1 (stereo not given in full) [Bleomycin sulfate]	0.739
Cc1ccccc1-n1c(Cn2ncc3c(N)ncnc32)nc2cccc(C)c2c1=O	0.689
C=C1C[C@@H]2[C@H](CC[C@]3(C)C(=O)CC[C@@H]23)[C@@]2(C)C=CC(=O)C=C12	0.839
CCN1CCN(C(=O)Cc2ccc(Nc3ncc(F)c(Nc4ccc(C(=O)Nc5ccccc5Cl)cc4)n3)cc2)CC1	0.808
Oc1ncc(N(CCCl)CCCl)c(O)n1	0.81
Cc1ccccc1-n1c(Cn2cnc3c(N)ncnc32)nc2cccc(C)c2c1=O	0.79
C1CN1c1nc(N2CC2)nc(N2CC2)n1	0.828

====

Tested on: A549
Assay: relative viability (normalised to negative control = 1, bortezomib = 0) (fraction); higher = less cytotoxic
Conditions: inflammatory serum-free RHB-A with cytokines + LPS; 5 d + 24 h CellTiter-Blue; compound 30 nM; GSK126 pretreatment: none (vehicle)
The following molecules are listed with their measured relative viability values.
measure-name: relative viability

NCCCNCCSP(=O)(O)O [Amifostine]	0.908
C1CN1c1nc(N2CC2)nc(N2CC2)n1 [Triethylenemelamine]	0.834
O=C(O)CCCc1ccc(N(CCCl)CCCl)cc1 [Chlorambucil]	0.844
N.N.[Cl][Pt][Cl] [Cisplatin]	0.812

Measured values drawn from the supplement of paper PMC6279402 for this set.
